From: patent US9695176B2

Reported pIC50 values are given for each entry in this list.
# target_under_test: Human CGRP Receptor (Homo sapiens (Human), UniProt O60894+Q16602)
# Sequence (Q16602 23-461): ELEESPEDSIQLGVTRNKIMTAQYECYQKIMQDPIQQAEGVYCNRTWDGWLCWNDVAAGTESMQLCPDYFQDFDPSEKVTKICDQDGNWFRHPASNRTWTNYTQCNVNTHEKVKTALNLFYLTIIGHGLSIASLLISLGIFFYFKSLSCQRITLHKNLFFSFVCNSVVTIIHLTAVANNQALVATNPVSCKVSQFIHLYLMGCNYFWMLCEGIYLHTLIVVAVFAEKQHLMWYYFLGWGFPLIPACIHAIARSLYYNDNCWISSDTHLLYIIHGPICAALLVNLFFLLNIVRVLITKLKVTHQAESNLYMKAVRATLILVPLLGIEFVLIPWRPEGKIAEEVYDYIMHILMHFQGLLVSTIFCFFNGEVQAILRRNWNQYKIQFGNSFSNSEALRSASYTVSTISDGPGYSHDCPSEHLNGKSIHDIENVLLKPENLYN
# Sequence (O60894 27-148): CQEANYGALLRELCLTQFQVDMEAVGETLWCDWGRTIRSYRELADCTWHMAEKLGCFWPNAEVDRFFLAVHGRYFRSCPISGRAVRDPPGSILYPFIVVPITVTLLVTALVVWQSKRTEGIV
# assay_details: Radioligand binding assay, [125I]-CGRP displacement on SK-N-MC membranes
pIC50: −log10 of the molar value.

- compound: "Cc1cc(CC(OC(=O)N2CCC(c3cc4ccccc4[nH]c3=O)CC2)c2ncc3n2CCN(C2CCCCC2)C3)cc2cn[nH]c12 (racemic)"
  target_under_test: "Human CGRP Receptor (Homo sapiens (Human), UniProt O60894+Q16602)"
  pIC50: 9.66
- compound: "Cc1cc(CC(OC(=O)N2CCC(c3cc4ccccc4[nH]c3=O)CC2)c2ncc3n2CCN(Cc2ccccc2)C3)cc2cn[nH]c12 (racemic)"
  target_under_test: "Human CGRP Receptor (Homo sapiens (Human), UniProt O60894+Q16602)"
  pIC50: 9.59
- compound: "Cc1cc(CC(OC(=O)N2CCC(c3cc4ccccc4[nH]c3=O)CC2)c2ncc3n2CCNC3)cc2cn[nH]c12 (racemic)"
  target_under_test: "Human CGRP Receptor (Homo sapiens (Human), UniProt O60894+Q16602)"
  pIC50: 8.53
- compound: "CCN1CCn2c(cnc2C(Cc2cc(C)c3[nH]ncc3c2)OC(=O)N2CCC(c3cc4ccccc4[nH]c3=O)CC2)C1 (racemic)"
  target_under_test: "Human CGRP Receptor (Homo sapiens (Human), UniProt O60894+Q16602)"
  pIC50: 8.77
